# Tested target: medaka Esr1 (mEsr1) (Oryzias latipes)
# Construct: expressed in transfected cells; host or cells: HEK293 (human embryonic kidney cells), transient transfection with FuGENE HD
# Sequence (P50241 1-620): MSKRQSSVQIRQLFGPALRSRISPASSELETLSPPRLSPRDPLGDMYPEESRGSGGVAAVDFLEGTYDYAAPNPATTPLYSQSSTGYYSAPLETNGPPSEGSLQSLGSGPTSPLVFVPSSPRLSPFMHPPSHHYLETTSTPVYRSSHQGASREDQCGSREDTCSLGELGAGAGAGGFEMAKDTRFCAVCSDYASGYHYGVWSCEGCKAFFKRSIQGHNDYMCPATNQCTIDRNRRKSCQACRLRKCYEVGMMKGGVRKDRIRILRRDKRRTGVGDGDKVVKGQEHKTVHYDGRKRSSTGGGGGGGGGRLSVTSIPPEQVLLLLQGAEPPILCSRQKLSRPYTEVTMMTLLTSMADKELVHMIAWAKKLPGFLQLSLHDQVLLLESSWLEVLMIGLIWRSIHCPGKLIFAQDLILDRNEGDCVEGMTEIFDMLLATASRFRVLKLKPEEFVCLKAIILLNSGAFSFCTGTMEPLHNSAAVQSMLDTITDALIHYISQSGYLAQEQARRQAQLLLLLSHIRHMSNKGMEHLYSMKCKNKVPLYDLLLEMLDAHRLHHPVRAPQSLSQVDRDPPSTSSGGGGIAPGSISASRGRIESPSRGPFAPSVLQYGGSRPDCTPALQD
# Protocol details: cell-based
# Type: cell-based, Japanese medaka (Oryzias latipes)
# Condition context: mEsr1 RGA agonist assay; ND = no significant response even at the highest assay concentration (in parentheses); read-out: Agonist assay, EC50, Medaka Esr1
Readout: pEC50
Keep it numeric: pEC50 is minus log10 of the concentration in mol/L.

See these solved cases before continuing.
C#C[C@]1(O)CC[C@H]2[C@@H]3CCC4=CC(=O)CC[C@@H]4[C@H]3CC[C@@]21CC [LNG, Levonorgestrel]    5.96
CCC(C)(C)c1ccc(O)cc1 [PTH, 4‐tert‐Pentylphenol]    6.01

# next compound below
Enquiry: For the compound C#C[C@]1(O)CC[C@H]2[C@@H]3CCc4cc(O)ccc4[C@H]3CC[C@@]21C [EE2, 17α‐Ethynylestradiol] , give its reported pEC50.
Return: 9.06

* * *

# Tested target: medaka Esr1 (mEsr1) (Oryzias latipes)
# Construct: expressed in transfected cells; host or cells: HEK293 (human embryonic kidney cells), transient transfection with FuGENE HD
# Protocol details: cell-based
# Assay type: cell-based, Japanese medaka (Oryzias latipes)
# Condition context: read-out: Agonist assay, EC50, Medaka Esr1; mEsr1 RGA agonist assay; ND = no significant response even at the highest assay concentration (in parentheses)
Readout: EC50 (µM)
Write the value in µM as a bare number.

Enquiry: For the compound Cc1cc(O)ccc1Cl [CMP, 4‐Chloro‐3‐methylphenol] , give its reported EC50.
Return: 61

* * *

# Tested target: medaka ARβ (mARβ) (Oryzias latipes, UniProt D1MV73)
# Sequence (D1MV73 entry or part of it): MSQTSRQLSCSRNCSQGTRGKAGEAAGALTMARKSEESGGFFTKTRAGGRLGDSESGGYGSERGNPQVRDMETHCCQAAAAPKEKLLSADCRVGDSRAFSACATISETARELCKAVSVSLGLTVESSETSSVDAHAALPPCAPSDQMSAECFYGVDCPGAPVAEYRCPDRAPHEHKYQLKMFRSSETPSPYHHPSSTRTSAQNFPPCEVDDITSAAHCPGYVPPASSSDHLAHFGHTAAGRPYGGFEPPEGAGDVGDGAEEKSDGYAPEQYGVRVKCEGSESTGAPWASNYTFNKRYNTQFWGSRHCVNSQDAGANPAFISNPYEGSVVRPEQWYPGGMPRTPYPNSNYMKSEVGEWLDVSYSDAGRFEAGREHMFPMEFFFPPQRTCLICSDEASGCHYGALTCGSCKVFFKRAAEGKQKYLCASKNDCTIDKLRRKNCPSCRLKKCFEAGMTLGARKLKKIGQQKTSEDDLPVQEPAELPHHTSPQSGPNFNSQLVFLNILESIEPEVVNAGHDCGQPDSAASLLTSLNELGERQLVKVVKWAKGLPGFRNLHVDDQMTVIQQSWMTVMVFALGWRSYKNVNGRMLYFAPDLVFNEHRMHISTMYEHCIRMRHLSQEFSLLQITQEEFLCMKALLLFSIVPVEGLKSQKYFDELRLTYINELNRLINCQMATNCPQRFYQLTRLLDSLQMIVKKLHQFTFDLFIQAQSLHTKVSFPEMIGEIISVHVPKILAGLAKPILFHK
# Protocol details: Medaka ARβ reporter gene assay (RGA), agonist assay, HepG2 cells
# Condition context: mARβ RGA agonist assay; ND = no significant response even at the highest assay concentration (in parentheses)
Each item that follows carries a reported pEC50.
Keep it numeric: pEC50 is minus log10 of the concentration in mol/L.

C[C@]12CCC(=O)C=C1CC[C@@H]1[C@@H]2CC[C@@]2(C)[C@H]1CC[C@]2(C)O    9.92

# next compound below
Enquiry: For the compound C[C@]12CC(=O)[C@H]3[C@@H](CCC4=CC(=O)CC[C@@]43C)[C@@H]1CC[C@@H]2O [11KT, 11‐ketotestosterone] , give its reported pEC50.
Return: 8.57

Where do these numbers come from? They come from paper PMC8359193.
